For each record, write down the corresponding EC150.
Target: AMPK alpha2/beta2/gamma1 (Homo sapiens) (UniProt P54646+O43741+P54619)
Sequence (O43741 whole entry, looked up): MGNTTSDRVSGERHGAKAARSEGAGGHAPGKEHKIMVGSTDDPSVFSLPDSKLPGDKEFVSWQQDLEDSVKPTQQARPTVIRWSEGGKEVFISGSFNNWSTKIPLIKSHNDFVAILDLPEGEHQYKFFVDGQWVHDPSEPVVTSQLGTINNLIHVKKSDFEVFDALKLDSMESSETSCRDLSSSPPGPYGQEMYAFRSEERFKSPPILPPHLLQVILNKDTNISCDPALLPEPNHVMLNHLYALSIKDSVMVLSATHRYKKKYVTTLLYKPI
Sequence (P54619 whole entry, looked up): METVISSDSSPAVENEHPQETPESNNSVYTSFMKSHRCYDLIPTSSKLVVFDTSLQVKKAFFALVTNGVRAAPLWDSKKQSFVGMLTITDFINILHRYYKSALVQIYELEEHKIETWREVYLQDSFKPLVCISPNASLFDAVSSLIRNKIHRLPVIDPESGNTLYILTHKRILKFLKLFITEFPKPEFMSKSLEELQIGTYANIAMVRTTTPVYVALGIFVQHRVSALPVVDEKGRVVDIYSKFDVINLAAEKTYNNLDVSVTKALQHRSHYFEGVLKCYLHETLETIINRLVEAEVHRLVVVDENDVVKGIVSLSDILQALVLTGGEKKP
Sequence (P54646 whole entry, looked up): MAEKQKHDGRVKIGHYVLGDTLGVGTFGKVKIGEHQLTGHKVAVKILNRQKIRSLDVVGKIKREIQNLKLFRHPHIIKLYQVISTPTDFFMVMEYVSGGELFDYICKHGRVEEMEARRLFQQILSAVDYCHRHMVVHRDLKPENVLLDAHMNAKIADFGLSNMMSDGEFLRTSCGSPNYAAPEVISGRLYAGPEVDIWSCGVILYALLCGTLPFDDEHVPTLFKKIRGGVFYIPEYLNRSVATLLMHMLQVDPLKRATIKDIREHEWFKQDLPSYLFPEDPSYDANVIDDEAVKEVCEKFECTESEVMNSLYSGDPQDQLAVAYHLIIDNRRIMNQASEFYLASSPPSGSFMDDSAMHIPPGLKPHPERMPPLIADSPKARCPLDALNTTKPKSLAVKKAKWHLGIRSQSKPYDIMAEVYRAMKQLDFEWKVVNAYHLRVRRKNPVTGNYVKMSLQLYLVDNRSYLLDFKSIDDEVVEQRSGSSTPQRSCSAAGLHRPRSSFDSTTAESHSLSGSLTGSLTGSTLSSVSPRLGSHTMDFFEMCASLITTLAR
Test: Activation of human recombinant AMPK A2/B2/G1 assessed as increase in AMPK phosphorylation using FL-peptide as substrate incubated for 120 mins by EZ reader method
Assay type: protein-complex assay
Conditions: filed as activator
Give the quantity in µM, number only.

**Q:** Using the record for `CS(=O)(=O)c1ccccc1CNc1nc2nc(O[C@@H]3CO[C@H]4[C@@H]3OC[C@H]4O)[nH]c2cc1Cl` , report its EC150.
**A:** 23

**Q:** GET /values?readout=EC150&item= `CN(Cc1ccccc1)c1nc2nc(O[C@@H]3CO[C@H]4[C@@H]3OC[C@H]4O)[nH]c2cc1Cl`
**A:** 4.9

**Q:** Query (compound): `O[C@@H]1CO[C@H]2[C@@H]1OC[C@H]2Oc1nc2nc(NCc3ccccc3F)c(Cl)cc2[nH]1` ; field requested: EC150
**A:** 0.048

**Q:** Need EC150 of `O[C@@H]1CO[C@H]2[C@@H]1OC[C@H]2Oc1nc2nc(N[C@H]3CCc4ccccc43)c(Cl)cc2[nH]1` , thanks.
**A:** 0.0031

**Q:** // EC150 lookup, key: `O[C@@H]1CO[C@H]2[C@@H]1OC[C@H]2Oc1nc2nc(NCCCc3ccccc3)c(Cl)cc2[nH]1`
**A:** 15

**Q:** Item under review: `OCc1ccccc1CNc1nc2nc(O[C@@H]3CO[C@H]4[C@@H]3OC[C@H]4O)[nH]c2cc1Cl` . Reported EC150?
**A:** 9.5

**Q:** Entry `Cn1cc(-c2cc(F)c3c(c2)CC[C@@H]3Nc2nc3nc(O[C@@H]4CO[C@H]5[C@@H]4OC[C@H]5O)[nH]c3cc2Cl)cn1` : reported EC150 = ?
**A:** 0.0044

**Q:** // EC150 lookup, key: `O[C@@H]1CO[C@H]2[C@@H]1OC[C@H]2Oc1nc2nc(NCc3ccccc3C(F)(F)F)c(Cl)cc2[nH]1`
**A:** 8.9

---

Experiment: Total clearance in rat at 0.5 mg/kg,iv
Type: ADME, organism-based
Details: in vivo
Endpoint name: clearance (mL/min/kg)
Enter your answer as a number in mL/min/kg; do not include the unit.

**Q:** Fill blank: measured clearance of the compound `COCCOc1cc(F)c2c(c1)CC[C@@H]2Nc1nc2nc(O[C@@H]3CO[C@H]4[C@@H]3OC[C@H]4O)[nH]c2cc1Cl` is ____.
**A:** 9.02

---

Test: Protein binding in serum (unknown origin) assessed as free fraction by equilibrium dialysis method
Assay type: ADME, cell-free
Endpoint name: fraction unbound
Please respond with just the number, no unit label.

**Q:** Consider the compound `COCCOc1cc(F)c2c(c1)CC[C@@H]2Nc1nc2nc(O[C@@H]3CO[C@H]4[C@@H]3OC[C@H]4O)[nH]c2cc1Cl` and give its measured fraction unbound.
**A:** 0.031

---

Endpoint name: IC50

**Q:** Recorded IC50 for `COCCOc1cc(F)c2c(c1)CC[C@@H]2Nc1nc2nc(O[C@@H]3CO[C@H]4[C@@H]3OC[C@H]4O)[nH]c2cc1Cl` with Cytochrome P450 3A4 (Homo sapiens), please?
**A:** > 20 µM

---

Biological target: UniProt:P10635
Sequence (P10635 whole entry): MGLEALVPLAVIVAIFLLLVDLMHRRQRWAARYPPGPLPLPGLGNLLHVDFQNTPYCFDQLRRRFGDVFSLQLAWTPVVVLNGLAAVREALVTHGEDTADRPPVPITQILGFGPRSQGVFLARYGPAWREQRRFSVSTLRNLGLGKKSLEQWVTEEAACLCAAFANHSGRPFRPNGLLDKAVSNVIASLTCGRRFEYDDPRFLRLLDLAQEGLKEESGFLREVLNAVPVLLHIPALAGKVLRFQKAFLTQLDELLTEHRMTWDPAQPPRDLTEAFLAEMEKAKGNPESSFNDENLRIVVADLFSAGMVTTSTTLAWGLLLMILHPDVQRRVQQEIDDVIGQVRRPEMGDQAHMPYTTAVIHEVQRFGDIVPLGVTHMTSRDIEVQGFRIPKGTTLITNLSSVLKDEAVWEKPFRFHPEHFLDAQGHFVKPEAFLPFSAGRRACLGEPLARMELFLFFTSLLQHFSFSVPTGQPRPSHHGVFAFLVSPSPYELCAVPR
Endpoint name: IC50

**Q:** Returns the measured IC50 for the input compound. Input: `COCCOc1cc(F)c2c(c1)CC[C@@H]2Nc1nc2nc(O[C@@H]3CO[C@H]4[C@@H]3OC[C@H]4O)[nH]c2cc1Cl`
**A:** > 20 µM

---

Assay: […] in rat muscle tissue at 0.5 mg/kg,iv
Format: ADME, organism-based
Endpoint name: Kp
Respond numerically, and do not add a unit to the figure.

**Q:** What Kp value was documented for this compound, `COCCOc1cc(F)c2c(c1)CC[C@@H]2Nc1nc2nc(O[C@@H]3CO[C@H]4[C@@H]3OC[C@H]4O)[nH]c2cc1Cl` ?
**A:** 1.51

---

Experiment: Cmax in rat at 0.5 mg/kg,iv
Type: ADME, organism-based
Design: dose 0.5 mg/kg, route iv
Conditions: in vivo
Endpoint name: Cmax
Report as: number unit

**Q:** Field request: Cmax | item: `COCCOc1cc(F)c2c(c1)CC[C@@H]2Nc1nc2nc(O[C@@H]3CO[C@H]4[C@@H]3OC[C@H]4O)[nH]c2cc1Cl`
**A:** 65.4 ng/mL
